Tested on: Escherichia coli TOP10
Test: shrunken log2 fold change of peptide-encoding DNA abundance (4.5 h post-induction vs induction); higher = less antimicrobial activity (less host growth inhibition)
Conditions: time post-induction: 4.5 h; library: site-saturation at positions 5, 18, 19, 20
Quantity: shrunken log2 fold change

Input sequence	Quantity	Test result
RRIRNRPPRLPRPRPRPISGPRP	shrunken log2 fold change	-0.0579
RRIRLRPPRLPRPRPRPNWFPRP	shrunken log2 fold change	-0.00982
RRIRYRPPRLPRPRPRPIIQPRP	shrunken log2 fold change	-0.0128
RRIRRRPPRLPRPRPRPNLSPRP	shrunken log2 fold change	-0.0897
RRIRNRPPRLPRPRPRPIFTPRP	shrunken log2 fold change	-0.424
RRIRNRPPRLPRPRPRPHQMPRP	shrunken log2 fold change	-0.114
RRIRQRPPRLPRPRPRPYAWPRP	shrunken log2 fold change	-0.0963
RRIRDRPPRLPRPRPRPQHEPRP	shrunken log2 fold change	-0.00197
RRIRFRPPRLPRPRPRPDKSPRP	shrunken log2 fold change	0.053
RRIRTRPPRLPRPRPRPNDNPRP	shrunken log2 fold change	-0.739
RRIRIRPPRLPRPRPRPMGNPRP	shrunken log2 fold change	0.0077
RRIRWRPPRLPRPRPRPECYPRP	shrunken log2 fold change	-0.0149
RRIRTRPPRLPRPRPRPFVAPRP	shrunken log2 fold change	-0.0696
RRIRPRPPRLPRPRPRPCRPPRP	shrunken log2 fold change	-0.168
RRIRQRPPRLPRPRPRPASVPRP	shrunken log2 fold change	0.253

* * *

System: Escherichia coli TOP10
Assay: shrunken log2 fold change of peptide-encoding DNA abundance (4.5 h post-induction vs induction); higher = less antimicrobial activity (less host growth inhibition)
Conditions: time post-induction: 4.5 h; library: site-saturation at positions 5, 18, 19, 20
We begin with a simple list: items and their reported shrunken log2 fold change.
Quantity: shrunken log2 fold change

Input sequence	Quantity	Test result
RRIRSRPPRLPRPRPRPFSLPRP	shrunken log2 fold change	-0.506
RRIRSRPPRLPRPRPRPHWDPRP	shrunken log2 fold change	0.00395
RRIRLRPPRLPRPRPRPAYVPRP	shrunken log2 fold change	-0.177
RRIRARPPRLPRPRPRPTYRPRP	shrunken log2 fold change	0.0376
RRIRIRPPRLPRPRPRPQDIPRP	shrunken log2 fold change	-0.461
RRIRRRPPRLPRPRPRPKRSPRP	shrunken log2 fold change	0.11
RRIRDRPPRLPRPRPRPDTNPRP	shrunken log2 fold change	-0.0518
RRIRCRPPRLPRPRPRPHHWPRP	shrunken log2 fold change	-0.0852
RRIRCRPPRLPRPRPRPKYFPRP	shrunken log2 fold change	-0.501
RRIRDRPPRLPRPRPRPERFPRP	shrunken log2 fold change	0.361
RRIRQRPPRLPRPRPRPKINPRP	shrunken log2 fold change	-0.354
RRIRARPPRLPRPRPRPNGVPRP	shrunken log2 fold change	-0.00122
RRIRIRPPRLPRPRPRPHQFPRP	shrunken log2 fold change	-0.525
RRIRDRPPRLPRPRPRPLEWPRP	shrunken log2 fold change	0.421
RRIRYRPPRLPRPRPRPSFAPRP	shrunken log2 fold change	-0.332

* * *

System: Escherichia coli TOP10;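 note: peptides expressed intracellularly from a pBAD plasmid library in pooled LB shake-flask culture, induced with 0.3% L-arabinose, DNA abundance read by NGS, three biological replicates, DESeq2 with apeglm shrinkage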
Assay: shrunken log2 fold change of peptide-encoding DNA abundance (4.5 h post-induction vs induction); higher = less antimicrobial activity (less host growth inhibition)
Conditions: time post-induction: 4.5 h; library: site-saturation at positions 5, 18, 19, 20
So basically every entry gets a class from its shrunken log2 fold change, ranges being 0: < -0.2; 1: ≥ -0.2 and < 0.1; 2: ≥ 0.1

Input sequence	Qualitative label
RRIRKRPPRLPRPRPRPFRVPRP	1
RRIRGRPPRLPRPRPRPWYTPRP	0
RRIRMRPPRLPRPRPRPSAIPRP	2
RRIRFRPPRLPRPRPRPVQIPRP	1
RRIRDRPPRLPRPRPRPCPPPRP	0
RRIRGRPPRLPRPRPRPSVDPRP	2
RRIRYRPPRLPRPRPRPVCIPRP	0
RRIRQRPPRLPRPRPRPLHGPRP	1
RRIRGRPPRLPRPRPRPPREPRP	2
RRIRCRPPRLPRPRPRPATYPRP	0
RRIRFRPPRLPRPRPRPLEKPRP	1
RRIRCRPPRLPRPRPRPQPFPRP	1
RRIRDRPPRLPRPRPRPMRGPRP	2
RRIRNRPPRLPRPRPRPEFIPRP	0
